Give MCC for every item shown.
system: Human alphaherpesvirus 3; experiment: Minimum cytotoxic concentration that causes alterations of VZV infected Osteosarcoma cell morphology; format: functional

Sample answers from the record:
O=c1[nH]c(=O)n([C@H]2C[C@H](O)[C@]3(CO)C[C@H]23)cc1I    > 5 µM
O=c1[nH]c(=O)n([C@H]2C[C@H](O)[C@@H](CO)O2)cc1/C=C/Br    > 150 µM
O=c1[nH]c(=O)n([C@H]2C[C@H](O)[C@]3(CO)C[C@H]23)cc1Br    > 50 µM

*Q* Find the recorded MCC belonging to `O=c1[nH]c(=O)n([C@H]2C[C@H](O)[C@]3(CO)C[C@H]23)cc1/C=C/Br` and report it.
*A* > 5 µM
